biological target: HLA-DRβ1*04:01 (DR4) (Homo sapiens, UniProt P01903+P01911, A100K/A169T/F76Y/I96L/K127E/L162R/M171V/N62H/P40V/Q125Y/R42H/S133A/S149N/S66Y/V115G/V209L/W38E); assay: biochemical; format: binding; settings: Kd (nM) DM+
Where no end group is shown, it is not given here.
PROPERTY: Kd (nM)
Response body: numeric value in nM, unit text excluded.

Report Kd, nothing else, for this sequence: QNSYSTEWSPCSVT [QNT-Y]
35.7

---

pIC50 values, listed per item
biological target: HLA-DRβ1*04:01 (DR4) (Homo sapiens, UniProt P01903+P01911, A100K/A169T/F76Y/I96L/K127E/L162R/M171V/N62H/P40V/Q125Y/R42H/S133A/S149N/S66Y/V115G/V209L/W38E); test: biochemical; assay type: binding; conditions: IC50, competition binding assay
pIC50: −log10 of the molar value. Where no end group is shown, it is not given here.

QNSLSTEWSPCSVT [QNT-5]
~5.77

Tell us which pIC50 value is on record for QNSYSTEWSPCSVT [QNT-Y]
~6.89
